In this section, each of the variants is paired with its reported pKd.
B1: NELF-E aptamer (parent)
chain: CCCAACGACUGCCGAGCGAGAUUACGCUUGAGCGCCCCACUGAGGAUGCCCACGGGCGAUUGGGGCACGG

variants of: B1; test: HiTS-RAP; conditions: with NELF-E (Drosophila)
pKd (log units): -log10 of the concentration in mol/L.

U22C U47A ... 7.98
G7U C66U ... 8.21
A5G C9U ... 8.20
A8U G11A ... 8.19

Exercise: Which value of pKd has been reported for U22G G58U in the records?
Solution: 7.98
